Value source: PubChem BioAssay (NCI)

tested on: U251 CNS; experiment: NCI-60 one-dose screen, 48 h (100 = growth as untreated, 0 = no growth, -100 = all killed); conditions: 10 µM unless noted
Compounds without any hit were thinned out: in the full panel of roughly 83,000, 20% have a hit.
Reported growth values for a set of compounds
All answers are understood in %, so give the number only.

Check out these entries, answers already filled in.
# compound Cn1c(COC(=O)NCCn2ccnc2)nc2c(N3CCOCC3)nc(-c3ccccc3)nc21 ; its growth = -61

# compound CN1CCN(c2c(F)cc(NC3=C(Cl)C(=O)c4ncccc4C3=O)cc2F)CC1 ; its growth = 103

# compound CCCCN(CCCC)CCc1c(C)cc(C)c(CCN(CCCC)CCCC)c1O ; its growth = 24.6

# compound CC(c1ccccc1)n1ccnc1CO (centres undefined) ; its growth = 98.9

# compound CCCCCCc1nc2nc(Cl)c(Cl)nc2[nH]1 ; its growth = 49

Continuing:
# compound Fc1ccc(C2CC(c3cccc(Nc4ccncc4)c3)=NN2c2ccc(Cl)cc2)cc1 (centres undefined) ; its growth = 8.99

# compound CN(C)Cc1c(-c2ccccc2)[nH]c2ccccc12 ; its growth = 106

# compound CN1CCN(C(=O)[C@]2(C)CC[C@]3(C)CC[C@]4(C)C(=CC(=O)[C@@H]5[C@@]6(C)CCC(=O)NC(C)(C)[C@@H]6CC[C@]54C)[C@@H]3C2)CC1 ; its growth = 86.7

# compound CC1=CC[C@@H]2CC[C@]3(C)[C@H](CC[C@@H]4[C@@]5(C)CCCNC(C)(C)[C@@H]5CC[C@]43C)[C@H]2[C@@H]1C ; its growth = -90.8

----------
tested on: SNB-19 CNS; test: NCI-60 one-dose screen, 48 h; conditions: 10 µM unless noted
About 83,000 compounds went through this panel and 20% of them were active in at least one assay; those are over-represented in the sample as a whole. Active and inactive are the calls of the source. How the source made its calls: active means growth percent below 10; inactive means the rest.
A correct response names exactly one class from class 1 (active), class 0 (inactive)

As a guide, the following entries are already answered.
[Q] Look up the recorded call for O=C1NC(=S)NC(=O)C1=Cc1cccc(C=C2C(=O)NC(=S)NC2=O)c1 in this test.
[A] class 0

[Q] Look up the recorded call for Cc1cc(C(=O)Nc2ncnc3nc[nH]c23)no1 in this test.
[A] class 0

[Q] Look up the recorded call for CCN(CC)CCCC(C)Nc1cc(-c2cccc(OC(F)(F)F)c2)nc2ccc(N3CCCC3)cc12 (centres undefined) in this test.
[A] class 0

[Q] Look up the recorded call for CSc1nc(O)c(-c2ccccc2)c(=O)[nH]1 in this test.
[A] class 0

[Q] Look up the recorded call for O=C(Nc1ccc2ncnc(Nc3ccc(Oc4cccc(F)c4)c(Cl)c3)c2c1)c1ccc(CN2CCOCC2)cc1 in this test.
[A] class 0

[Q] Look up the recorded call for O=C(Nc1cccc(Cl)c1)Oc1c(Br)c(Br)c(Br)c(Br)c1Br in this test.
[A] class 0

Continuing:
[Q] Look up the recorded call for CC(=O)[C@@H]1CC[C@]2(C(N)=O)CC[C@]3(C)[C@H](CC[C@@H]4[C@@]5(C)CCC(=O)C(C)(C)[C@@H]5CC[C@]43C)[C@@H]12 in this test.
[A] class 0

[Q] Look up the recorded call for COc1cc(NCC(O)CN(CC(C)C)C2CCCC2)c2ncccc2c1 (centres undefined) in this test.
[A] class 0

[Q] Look up the recorded call for Cc1c2c(cc[n+]1Cc1ccccc1)c1ccc(OCC3CCCCC3)cc1n2CC1CCCCC1 in this test.
[A] class 1

----------
system: SK-MEL-2 melanoma; test: NCI-60 one-dose screen, 48 h (100 = growth as untreated, 0 = no growth, -100 = all killed); details: 10 µM unless noted
This is part of a sample that, as a whole, favours compounds with a hit. Of some 83,000 tested, about 20% had one in any assay.
recorded.metric: growth (%)
All answers are understood in %, so give the number only.

# molecule COc1ccc(C2CC(n3nnnc3-c3ccccc3)=NN2)cc1 (stereo not drawn) ; its growth = 69.3

# molecule Cc1ccc(C2CC(c3cccc(Nc4ccncc4)c3)=NN2c2cc(Cl)cc(Cl)c2)cc1 (stereo not drawn) ; its growth = 96.4

# molecule COc1cc(/C=C/C(=O)c2ccc(Nc3ncnc4ccccc34)cc2)cc(OC)c1 ; its growth = 112

Continuing:
# molecule Nc1c(C(=O)Nc2ccc(Cl)cc2)cc(-c2nc3ccccc3s2)c(=O)n1NS(=O)(=O)c1ccc(Cl)cc1 ; its growth = 102

# molecule FC(F)(F)c1cccc(Oc2ccc(Nc3ncnc4ccc(OCCCN5CCOCC5)cc34)cc2Cl)c1 ; its growth = 82.7

# molecule O=C(Nc1sc2c(c1C(=O)O)CCCC2)c1cccc(C(F)(F)F)c1 ; its growth = 98.6

# molecule CCCCCCCCN1C(=O)/C(=c2\sc3n(c2=O)C2C(NN=3)N(CC)C(=O)N2CC)c2ccccc21 (stereo not drawn) ; its growth = 86.8

# molecule CCOC(=O)c1cnc2c(cnn2CC)c1NN=C(C)C ; its growth = 40

# molecule C[C@H]1[C@H](C)CC[C@]2(CO)CC[C@]3(C)C(=CC[C@@H]4[C@@]5(C)Cc6c([nH]c7ccccc67)C(C)(C)[C@@H]5CC[C@]43C)[C@H]12 ; its growth = 85.2

# molecule O=S(=O)(c1cccc(NC2=Nc3cccc4cccc2c34)c1)N1CCCC1 ; its growth = 75.2

# molecule COc1ccc(C2CC(c3cccc(Nc4ccncc4)c3)=NN2c2ccc(Cl)cc2)cc1 (stereo not drawn) ; its growth = 80.4

# molecule COC(=O)C1NC(=S)N(c2ccc(Cl)cc2)C1/C=C/c1ccccc1 (stereo not drawn) ; its growth = 102

----------
tested on: LOX IMVI melanoma; experiment: NCI-60 one-dose screen, 48 h (100 = growth as untreated, 0 = no growth, -100 = all killed); conditions: 10 µM unless noted
Compounds without any hit were thinned out: in the full panel of roughly 83,000, 20% have a hit.
growth under 90% gets Condition met, anything at or over 90% gets Condition not met.

[Q] Is it true that growth reported for Cc1ccccc1-c1cc(Cc2ccc(F)cc2)c(=O)[nH]n1 is less than 90%?
[A] Condition not met

Continuing:
[Q] Is it true that growth reported for Cn1c(COC(=O)NCCN2CCOCC2)nc2c(N3CCOCC3)nc(-c3ccccc3)nc21 is less than 90%?
[A] Condition met

[Q] Is it true that growth reported for O=C(Nc1nc(-c2ccc(Br)cc2)cs1)c1cc(-c2ccc(Br)cc2)nc2ccc(Cl)cc12 is less than 90%?
[A] Condition not met

[Q] Is it true that growth reported for CCC(C)C(N)C(=O)NNc1n[nH]c(=S)n1N (stereo unspecified) is less than 90%?
[A] Condition not met

[Q] Is it true that growth reported for CN(C)c1ccc(-c2c(C#N)c(N)n3nc(N)c(C#N)c3c2C#N)cc1 is less than 90%?
[A] Condition met

[Q] Is it true that growth reported for O=C(N=Nc1c(O)[nH]c2ccc(F)cc12)c1cc2ccccc2[nH]1 is less than 90%?
[A] Condition not met

[Q] Is it true that growth reported for COc1cccc(CNCCN2C(=O)c3ccc4c5c(ccc(c35)C2=O)C(=O)N(CCNCc2cccc(OC)c2)C4=O)c1 is less than 90%?
[A] Condition met

[Q] Is it true that growth reported for CC(=O)O[C@H]1CC[C@@]2(C)[C@@H](CC[C@@H]3[C@@H]2CC[C@@]2(C)[C@H]3CC[C@]2(O)C(C)=O)C1 is less than 90%?
[A] Condition not met

[Q] Is it true that growth reported for COc1ccc(C2CC(n3nnnc3-c3ccccc3)=NN2)cc1 (stereo unspecified) is less than 90%?
[A] Condition met

[Q] Is it true that growth reported for c1ccc(-c2nnc(Nc3ccc4c(c3)OCCO4)o2)c(NCc2ccncc2)c1 is less than 90%?
[A] Condition met

----------
tested on: COLO 205 colon; experiment: NCI-60 one-dose screen, 48 h; details: 10 µM unless noted
Compounds without any hit were thinned out: in the full panel of roughly 83,000, 20% have a hit. The source made the active and inactive calls. The calls were made as follows: active = growth percent below 10; inactive = the rest.
A correct response names exactly one class from active, inactive

As a guide, the following entries are already answered.
[Q] Look up the recorded call for COc1cc(C(=O)c2cnc(-c3ccc4cc[nH]c4c3)[nH]2)cc(OC)c1OC in this test.
[A] active

[Q] Look up the recorded call for N#CSCC1CC(O)(c2ccccc2)C(c2ccccc2)C(c2ccc(F)cc2)O1 (centres undefined) in this test.
[A] inactive

[Q] Look up the recorded call for CC(N)C(=O)NNc1n[nH]c(=S)n1N (centres undefined) in this test.
[A] inactive

[Q] Look up the recorded call for O=C1c2ccccc2-c2c1c1c(NCCCO)nc3ccccc3c1n2Cc1ccccc1 in this test.
[A] inactive

[Q] Look up the recorded call for O=C(N/N=C/c1cccc(O)c1)c1ccccc1Nc1cccc(C(F)(F)F)c1 in this test.
[A] inactive

[Q] Look up the recorded call for COc1cc2c(cc1[N+](=O)[O-])-c1ccc([N+](=O)[O-])cc1/C2=N/NC(N)=S in this test.
[A] inactive

[Q] Look up the recorded call for Cc1cccc(Oc2ccc(Nc3ncnc4ccc(NC(=O)CNCCO)cc34)cc2Cl)c1 in this test.
[A] inactive

[Q] Look up the recorded call for CCN(CCNc1cc(OC)cc2cccnc12)CCc1ccccc1 in this test.
[A] inactive

Continuing:
[Q] Look up the recorded call for CN1CCN(CC#CCNC(=O)[C@]23CCC(C)(C)C[C@H]2C2=CC[C@@H]4[C@@]5(C)Cc6c([nH]c7ccccc67)C(C)(C)[C@@H]5CC[C@@]4(C)[C@]2(C)CC3)CC1 in this test.
[A] inactive
